The values you see were collected from patent US7282507B2.

For each of the molecules below, state its log10 of IC50.
Target: androgen receptor LBD (Panvera) (Rattus norvegicus, UniProt P15207)
Construct: 5 pmol androgen receptor LBD (Panvera); purchased Panvera
Experiment: Androgen Receptor Filtration Binding Assay (PANVERA)
Conditions: [3H] R1881 tracer 0.5 nM; read-out: IC50 (nM), Androgen Receptor Binding (Panvera)
Heads up: the numbers are on a log10 scale; they represent IC50 in nM.

State the recorded log10 of IC50 for this entry: CC(O)(CSc1ccc(F)cc1)c1cc2nc(C(F)(F)F)ccc2[nH]1 (racemic)
4.59

Also CC(O)(CSc1ccc(N)cc1)c1cc2cc(Cl)c(C(F)(F)F)cc2[nH]1 (centres unmarked) ?
2.97

Also COC(=O)c1ccc2[nH]c(C(C)(O)CSc3ccc(Cl)cc3)cc2c1 (centres unmarked) ?
3.87

Also CC(O)(COC(=O)c1ccccc1C(F)(F)F)c1cc2cc(NC(=O)C(F)(F)F)c(C(F)(F)F)cc2[nH]1 (centres unmarked) ?
3.83

Also COC(=O)c1ccc2c(c1)cc(C(C)(O)CSC1CCCCC1)n2S(C)(=O)=O (centres unmarked) ?
4.36

Also CC(O)(COC(=O)c1ccc(Cl)cc1)c1cc2cc(Cl)ccc2[nH]1 (centres unmarked) ?
3.29

Also CC(O)(CSc1ccc(Cl)c(Cl)c1)c1cc2cc(Cl)c(C(F)(F)F)cc2n1S(C)(=O)=O (centres unmarked) ?
3.10

Also CC(O)(COC(=O)c1ccccc1)c1cc2cc(Cl)c(C(F)(F)F)cc2[nH]1 (centres unmarked) ?
2.64

----------
Target: androgen receptor (AdEasy+rAR, COS-7 cells) (Rattus norvegicus)
Construct: expressed in transfected cells; host or cells: COS-7 cells transduced with adenovirus AdEasy+rAR
Sequence (P15207 1-902): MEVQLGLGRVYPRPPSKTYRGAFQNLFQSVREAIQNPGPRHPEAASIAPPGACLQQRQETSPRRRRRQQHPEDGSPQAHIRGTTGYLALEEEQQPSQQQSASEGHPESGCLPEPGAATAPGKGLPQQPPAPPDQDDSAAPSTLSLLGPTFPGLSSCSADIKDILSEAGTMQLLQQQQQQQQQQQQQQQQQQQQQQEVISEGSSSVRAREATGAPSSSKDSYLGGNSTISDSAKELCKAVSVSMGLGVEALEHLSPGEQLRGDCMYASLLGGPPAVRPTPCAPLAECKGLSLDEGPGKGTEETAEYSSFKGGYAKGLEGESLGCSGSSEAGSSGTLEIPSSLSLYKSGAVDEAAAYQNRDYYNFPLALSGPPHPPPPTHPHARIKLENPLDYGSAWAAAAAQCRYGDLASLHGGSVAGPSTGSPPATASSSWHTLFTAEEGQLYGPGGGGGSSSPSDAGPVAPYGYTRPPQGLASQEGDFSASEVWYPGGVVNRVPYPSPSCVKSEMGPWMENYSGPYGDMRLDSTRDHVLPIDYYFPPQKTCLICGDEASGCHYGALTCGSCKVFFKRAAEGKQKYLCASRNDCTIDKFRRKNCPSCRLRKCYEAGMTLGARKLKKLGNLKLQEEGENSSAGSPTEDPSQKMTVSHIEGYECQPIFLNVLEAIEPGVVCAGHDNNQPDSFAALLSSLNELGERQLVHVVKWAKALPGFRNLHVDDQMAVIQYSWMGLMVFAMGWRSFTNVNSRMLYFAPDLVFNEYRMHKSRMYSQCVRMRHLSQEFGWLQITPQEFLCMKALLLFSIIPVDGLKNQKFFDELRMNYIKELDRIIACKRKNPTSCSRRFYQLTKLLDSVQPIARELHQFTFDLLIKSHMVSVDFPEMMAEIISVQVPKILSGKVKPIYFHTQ
Assay: COS-7 Whole-Cell Androgen Receptor Binding Assay, Adenovirus Transduction
Settings: concentration of 3000 nM
Property Name: inhibition at 3 µM (%)
Note: unit % is implicit; provide only the numeric part.

State the recorded inhibition at 3 µM for this entry: CCS(=O)(=O)CC(C)(O)c1cc2cc(C#N)c(C(F)(F)F)cc2[nH]1 (single isomer, unassigned) [Compound 222]
42

Also CC(O)(CS(=O)(=O)c1ccc(O)cc1)c1cc2cc(Cl)c(C(F)(F)F)cc2[nH]1 (stereo not shown) [Compound 121] ?
72

Also CC(O)(CSCc1ccccc1)c1cc2cc([N+](=O)[O-])c(C(F)(F)F)cc2[nH]1 (stereo not shown) [Compound 160] ?
84

Also CC(O)(CSc1ccc(C(=O)O)cc1)c1cc2cc(Cl)c(C(F)(F)F)cc2n1S(C)(=O)=O (stereo not shown) [Compound 132] ?
8.7

----------
Molecular target: androgen receptor (rat ventral prostate cytosol) (Rattus norvegicus)
Construct: from tissue; host or cells: ventral prostate cytosol of castrated male Sprague Dawley or Wistar rats
Experiment: Androgen Receptor Binding Using Rat Ventral Prostate Cytosol
Details: read-out: % Inhibition, Androgen Receptor Binding (Rat Cytosol)
For each of the molecules below, state its inhibition at 1 µM.
Note: unit % is implicit; provide only the numeric part.

Param readout= inhibition at 1 µM; system= androgen receptor (rat ventral prostate cytosol) (Rattus norvegicus); entry= CC(O)(COC(=O)c1ccccc1C(F)(F)F)c1cc2cc(N)c(C(F)(F)F)cc2[nH]1 (stereo not shown) ; returns value.
67.5

Also CC(O)(COC(=O)c1ccccc1Cl)c1cc2cc([N+](=O)[O-])c(C(F)(F)F)cc2[nH]1 (stereo not shown) ?
5.5

Also CC(O)(COC(=O)c1ccccc1)c1cc2cc(C#N)c(C(F)(F)F)cc2[nH]1 (stereo not shown) ?
13.2

Also CC(O)(CSc1ccc(Cl)cc1)c1cc2cc(C#N)c(C(F)(F)F)cc2[nH]1 (stereo not shown) ?
74

----------
Target: androgen receptor (AdEasy+rAR, COS-7 cells) (Rattus norvegicus)
Construct: expressed in transfected cells; host or cells: COS-7 cells transduced with adenovirus AdEasy+rAR
Assay: COS-7 Whole-Cell Androgen Receptor Binding Assay, Adenovirus Transduction
Settings: IC50 (nM), COS Binding
Property Name: IC50

State the recorded IC50 for this entry: CC(O)(CSc1ccc(C(=O)O)cc1)c1cc2cc(Cl)c(C(F)(F)F)cc2[nH]1 (centres unmarked)
> 1500 nM

Also `CCS(=O)(=O)C[C@](C)(O)c1cc2cc([N+](=O)[O-])c(C(F)(F)F)cc2[nH]1` ?
> 1000 nM

Also CC(O)(CS(C)(=O)=O)c1cc2cc(Cl)c(C(F)(F)F)cc2n1S(C)(=O)=O (centres unmarked) ?
> 1500 nM

Also CC(O)(CSc1ccc(C(=O)O)cc1)c1cc2cc(Cl)c(C(F)(F)F)cc2n1S(C)(=O)=O (centres unmarked) ?
> 3000 nM

Also COc1ccc(S(=O)(=O)CC(C)(O)c2cc3cc(Cl)c(C(F)(F)F)cc3n2S(C)(=O)=O)cc1 (centres unmarked) ?
> 1500 nM

----------
Biological target: androgen receptor (AdEasy+rAR, L929 cells) (Rattus norvegicus, UniProt P15207)
Construct: expressed in transfected cells; host or cells: L929 cells transduced with adenovirus AdEasy+rAR
Assay: L929 Androgen Receptor Functional Assay, Adenovirus Transduction
Assay type: cell-based
Conditions: agonist testing, 3000 nM
Experimental: L929 cells were plated in 96-well plates at 20,000 cells per well, in DMEM/F12 (GIBCO) containing 10% (v/v) charcoal-treated fetal bovine serum (Hyclone) and lacking phenol red. […] To each well was added 100 μL of Steady-Glo luciferase assay substrate (Promega) and the plates were placed on a rotary shaker for 1 min. […] The contents of each well were then transferred to a white microtiter plate (Packard) and read on a Luminoskan Ascent (Thermo Lab Systems). […]
Property Name: % Activity, L929 androgen receptor functional assay (%)
Note: unit % is implicit; provide only the numeric part.

State the recorded % Activity, L929 androgen receptor functional assay for this entry: CCC(O)(CSCC(F)(F)F)c1cc2cc([N+](=O)[O-])c(C(F)(F)F)cc2[nH]1 (stereo not shown) [Compound 185]
2

Also CC(O)(CS(C)(=O)=O)c1cc2cc(Cl)c(C(F)(F)F)cc2[nH]1 (stereo not shown) [Compound 138] ?
0

Also CC(O)(CSCC(F)(F)F)c1cc2cc(C#N)c(C(F)(F)F)cc2[nH]1 (racemic) [Compound 211] ?
−1

Also CCSCC(C)(O)c1cc2cc(C#N)c(C(F)(F)F)cc2[nH]1 (single isomer, unassigned) [Compound 217] ?
5

Also CCSCC(C)(O)c1cc2cc(Cl)ccc2n1S(C)(=O)=O (racemic) [Compound 154] ?
2

Also CC[S+]([O-])CC(C)(O)c1cc2cc(C(F)(F)F)c([N+](=O)[O-])cc2[nH]1 (mixture of isomers) [Compound 230] ?
0

Also CCC(O)(CS(=O)(=O)CC(F)(F)F)c1cc2cc([N+](=O)[O-])c(C(F)(F)F)cc2[nH]1 (stereo not shown) [Compound 191] ?
2

Also C[S+]([O-])CCC(C)(O)c1cc2cc([N+](=O)[O-])c(C(F)(F)F)cc2[nH]1 (mixture of isomers) [Compound 50] ?
2

Also CCSCC(C)(O)c1cc2cc([N+](=O)[O-])c(C(F)(F)F)cc2[nH]1 (single isomer, unassigned) [Compound 149] ?
2

Also CC(O)(CSc1ccccc1N)c1cc2cc(Cl)c(C(F)(F)F)cc2[nH]1 (stereo not shown) [Compound 123] ?
−4

Also CSCC(C)(O)c1cc2cc(Cl)c(C(F)(F)F)cc2[nH]1 (stereo not shown) [Compound 135] ?
0

Also CSCCC(C)(O)c1cc2cc([N+](=O)[O-])c(C(F)(F)F)cc2[nH]1 (stereo not shown) [Compound 47] ?
2

Also CC(O)(CS(C)(=O)=O)c1cc2cc([N+](=O)[O-])c(C(F)(F)F)cc2[nH]1 (stereo not shown) [Compound 140] ?
0
